test protocol: Food effect (FE) part, plasma pharmacokinetics
Assay type: in vivo, human
condition context: human, plasma, po, 200 mg, Treatment E: 200 mg single oral dose, fed; geometric least-squares mean; read-out: Cmax GM
observation type: Cmax (ng/mL)

[[record]]
molecule = "Cc1cccc(COc2ccc(Sc3ccoc3C3NC(=O)NC3=O)cc2)c1 (stereo not shown)"
observation_type = "Cmax"
result_value = 764


###

test protocol: Multiple ascending dose (MAD) part, plasma pharmacokinetics
Format: in vivo, human
condition context: human, plasma, po, 100 mg, Treatment A (100 mg ASD-in-Capsule oral), Day 1; mean; read-out: AUC0-24
observation type: AUC(0-t) (ng·h/mL)

[[record]]
compound = "Cc1cccc(COc2ccc(Sc3ccoc3C3NC(=O)NC3=O)cc2)c1 (stereo not shown) [compound of formula (I)]"
result_value = 3290

